Parameter Activity: see the listing below.
assay_explanation: Oxytocic potency in rat by uterus assay in presence of 0.5 mM Mg2+
Format: functional
Starred links: 1 amine or outer side, 2 acyl side, 3 side chain; linkers in the order of their positions; H or OH if unused. Positions of bridges follow the written chain, without caps; N, C: chain ends. Residues, ends and D or L forms follow the SMILES beside them. X1 = O=C([C@H](O)CS[*:2])[*:1]

compound: CC[C@H](C)[C@@H]1NC(=O)[C@H](Cc2ccc(O)cc2)NC(=O)[C@H](O)CSSC[C@@H](C(=O)NCC(=O)N[C@@H](CC(C)C)C(=O)NCC(N)=O)NC(=O)[C@H](CC(N)=O)NC(=O)[C@H]([C@@H](C)O)NC1=O (YITNCGLG-NH2; linker N-5 via X1)
Activity [U/mg]: 1002
--
compound: CC[C@H](C)[C@@H]1NC(=O)[C@H](Cc2ccc(O)cc2)NC(=O)[C@@H](N)CSSC[C@@H](C(=O)NCC(=O)N[C@@H](CC(C)C)C(=O)NCC(N)=O)NC(=O)[C@H](CC(N)=O)NC(=O)[C@H]([C@@H](C)O)NC1=O (H-CYITNCGLG-NH2; disulfide 1-6)
Activity [U/mg]: 857

====

Species: Rattus norvegicus
assay_explanation: Ratio of oxytocic potency to antidiuretic activity in rat
Set-up: species or system Urine
Starred links: 1 amine or outer side, 2 acyl side, 3 side chain; linkers in the order of their positions; H or OH if unused. Positions of bridges follow the written chain, without caps; N, C: chain ends. Residues, ends and D or L forms follow the SMILES beside them. X1 = O=C([C@H](O)CS[*:2])[*:1]
condition met if Ratio is below 20000. condition not met if not; exact matches included in condition not met.

compound: CC[C@H](C)[C@@H]1NC(=O)[C@H](Cc2ccc(O)cc2)NC(=O)[C@H](O)CSSC[C@@H](C(=O)NCC(=O)N[C@@H](CC(C)C)C(=O)NCC(N)=O)NC(=O)[C@H](CC(N)=O)NC(=O)[C@H]([C@@H](C)O)NC1=O (YITNCGLG-NH2; linker N-5 via X1)
classification: condition not met
//
compound: CC[C@H](C)[C@@H]1NC(=O)[C@H](Cc2ccc(O)cc2)NC(=O)[C@@H](N)CSSC[C@@H](C(=O)NCC(=O)N[C@@H](CC(C)C)C(=O)NCC(N)=O)NC(=O)[C@H](CC(N)=O)NC(=O)[C@H]([C@@H](C)O)NC1=O (H-CYITNCGLG-NH2; disulfide 1-6)
classification: condition not met
//
compound: CC[C@H](C)[C@@H]1NC(=O)[C@H](Cc2ccc(O)cc2)NC(=O)[C@@H](N)CSSC[C@@H](C(=O)N2CCC[C@H]2C(=O)N[C@@H](CC(C)C)C(=O)NCC(N)=O)NC(=O)[C@H](CC(N)=O)NC(=O)[C@H]([C@@H](C)O)NC1=O (H-CYITNCPLG-NH2; disulfide 1-6)
classification: condition met
//
compound: CC[C@H](C)[C@@H]1NC(=O)[C@H](Cc2ccc(O)cc2)NC(=O)[C@@H](N)CSSC[C@@H](C(=O)NCC(=O)N[C@@H](CC(C)C)C(=O)NCC(N)=O)NC(=O)[C@H](CC(N)=O)NC(=O)[C@H](CCC(N)=O)NC1=O (H-CYIQNCGLG-NH2; disulfide 1-6)
classification: condition met
//
compound: CC[C@H](C)[C@@H]1NC(=O)[C@H](Cc2ccc(O)cc2)NC(=O)[C@H](O)CSSC[C@@H](C(=O)N2CCC[C@H]2C(=O)N[C@@H](CC(C)C)C(=O)NCC(N)=O)NC(=O)[C@H](CC(N)=O)NC(=O)[C@H]([C@@H](C)O)NC1=O (YITNCPLG-NH2; linker N-5 via X1)
classification: condition met
